Source: patent US11186588B2

# Test system: NF-κB
# assay details: NF-κB reporter gene assay (TNF-α stimulated A549/NF-κB-luc cells)
# Format: cell-based
# condition set: Homo sapiens, TNF-α stimulation
pIC50: −log10 of the molar value.
measured parameter: pIC50

Guide cases for pIC50, answers given:
In [3]: df
Out[3]:
                                   compound  observed_result
0  Cc1sc2c(c1C)C(c1ccc([N+](=O)[O-])cc1)=NN(Cc1cccnc1)c1nnc(C)n1-2 [Example 70]             5.74
1  Cc1sc2c(c1C)C(c1ccc(Cl)cc1)=NN(Cc1cccc(N)c1)c1nnc(C)n1-2 [Example 52]             5.28

1. COc1ccc(CN2N=C(c3ccc(Cl)cc3)c3cc(C)sc3-n3c(C)nnc32)cc1 [Example 65]
2. Cc1sc2c(c1C)C(c1ccc(Cl)cc1)=NN(Cc1ccnc(N)c1)c1nnc(C)n1-2 [Example 57]
Field: lower pIC50 | Options: 1 / 2 Selection: enter the item's label.
1

====

# assay details: Pharmacokinetics test in rats (oral administration)
# Type: in vivo, LEW/CrlCrlj rats
# condition set: oral 2 mg/mL solution at 5 mL/kg, mean n = 4
measured parameter: MRT (h)

Observe how each entry below is paired with its result.
compound	reading unit	MRT
CC(=O)Nc1ccc(C2=NN(Cc3cccnc3)c3nnc(C)n3-c3sc(C)c(C)c32)cc1.CC(=O)Nc1ccc(C2=NN(Cc3cccnc3)c3nnc(C)n3-c3sc(C)c(C)c32)cc1.O=C(O)CCC(=O)O [0.5 Succinate of Example 71]	h	1.30
CC(=O)Nc1ccc(C2=NN(Cc3cccnc3)c3nnc(C)n3-c3sc(C)c(C)c32)cc1.O=C(O)/C=C\C(=O)O [1 Maleate of Example 71]	h	1.27
CC(=O)Nc1ccc(C2=NN(Cc3cccnc3)c3nnc(C)n3-c3sc(C)c(C)c32)cc1.Cc1ccc(S(=O)(=O)O)cc1 [1 Tosylate of Example 71]	h	1.48

I. CC(=O)Nc1ccc(C2=NN(Cc3cccnc3)c3nnc(C)n3-c3sc(C)c(C)c32)cc1.CC(=O)Nc1ccc(C2=NN(Cc3cccnc3)c3nnc(C)n3-c3sc(C)c(C)c32)cc1.O=C(O)/C=C/C(=O)O [0.5 Fumarate of Example 71]
II. CC(=O)Nc1ccc(C2=NN(Cc3cccnc3)c3nnc(C)n3-c3sc(C)c(C)c32)cc1.Cl [1 Hydrochloride of Example 71]
Field: entry with larger MRT (options I / II ). I would appreciate it if you answered with the label of your choice.
I
(I: 1.63 h, II: 1.12 h)

====

# assay details: Pharmacokinetics test in rats (oral administration)
# Assay type: in vivo, LEW/CrlCrlj rats
# condition set: male, LEW/CrlCrlj, rat, plasma, 10 mg/kg, oral 2 mg/mL solution at 5 mL/kg, mean n = 4, read-out: Cmax
measured parameter: Cmax (ng/mL)
Write the number in ng/mL without appending the unit.

Need Cmax of `CC(=O)Nc1ccc(C2=NN(Cc3cccnc3)c3nnc(C)n3-c3sc(C)c(C)c32)cc1` , thanks.
22.4

====

# assay details: Pharmacokinetics test in rats (oral administration)
# Type: in vivo, LEW/CrlCrlj rats
# condition set: oral 2 mg/mL solution at 5 mL/kg, mean n = 4
measured parameter: AUCinf (ng·h/mL)

compound	reading unit	AUCinf
CC(=O)Nc1ccc(C2=NN(Cc3cccnc3)c3nnc(C)n3-c3sc(C)c(C)c32)cc1.Cc1ccc(S(=O)(=O)O)cc1 [1 Tosylate of Example 71]	ng·h/mL	101.11
CC(=O)Nc1ccc(C2=NN(Cc3cccnc3)c3nnc(C)n3-c3sc(C)c(C)c32)cc1.Cl [1 Hydrochloride of Example 71]	ng·h/mL	105.65
CC(=O)Nc1ccc(C2=NN(Cc3cccnc3)c3nnc(C)n3-c3sc(C)c(C)c32)cc1.CC(=O)Nc1ccc(C2=NN(Cc3cccnc3)c3nnc(C)n3-c3sc(C)c(C)c32)cc1.O=C(O)CCC(=O)O [0.5 Succinate of Example 71]	ng·h/mL	106.41

A. CC(=O)Nc1ccc(C2=NN(Cc3cccnc3)c3nnc(C)n3-c3sc(C)c(C)c32)cc1.O=C(O)/C=C\C(=O)O [1 Maleate of Example 71]
B. CC(=O)Nc1ccc(C2=NN(Cc3cccnc3)c3nnc(C)n3-c3sc(C)c(C)c32)cc1.CC(=O)Nc1ccc(C2=NN(Cc3cccnc3)c3nnc(C)n3-c3sc(C)c(C)c32)cc1.O=C(O)/C=C/C(=O)O [0.5 Fumarate of Example 71]
Between the entries labeled A and B , whose measured AUCinf is lower? # answer = label of selected item
B
